Target: mouse GLP-1 receptor (mouse) (UniProt O35659)
Sequence (O35659 22-463): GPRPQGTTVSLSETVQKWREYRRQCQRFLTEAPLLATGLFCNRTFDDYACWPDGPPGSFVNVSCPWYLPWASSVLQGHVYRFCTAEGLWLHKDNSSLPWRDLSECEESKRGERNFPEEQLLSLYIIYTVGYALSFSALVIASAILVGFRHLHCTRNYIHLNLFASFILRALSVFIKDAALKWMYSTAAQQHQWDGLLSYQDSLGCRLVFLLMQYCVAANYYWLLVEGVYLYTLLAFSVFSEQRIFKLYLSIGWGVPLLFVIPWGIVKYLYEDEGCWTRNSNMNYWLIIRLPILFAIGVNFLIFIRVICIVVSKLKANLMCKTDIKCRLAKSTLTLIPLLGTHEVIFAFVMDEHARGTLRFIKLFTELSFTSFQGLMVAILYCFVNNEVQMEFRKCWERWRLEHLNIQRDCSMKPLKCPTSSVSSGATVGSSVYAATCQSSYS
Experiment: cell-based or functional assay
Please provide measured cAMP EC50 for the entries that follow.

Example cases with answers are listed next.
[
  {
    "Binder": "IP335 (Fc fusion) YSEGTFISDYSIAMDKIHQQDFVNWLLAQKGGGGGSGGGGSGGGGSGGGGSA",
    "Reported Measurement": "> 2740 nM"
  },
  {
    "Binder": "IP336 (Fc fusion) YSEGTFISDYSIAMDKIHQQDFVNWLLAQKGGGGGSGGGGSGGGGSGGGGSGGGGSGGGGSA",
    "Reported Measurement": "> 2260 nM"
  },
  {
    "Binder": "IP386 (Fc fusion) YSEGTFISDYSIAMDKIHQQDFVNWLLAQKGGGGGSGGGGSGGGGSGGGGSACPPC",
    "Reported Measurement": "> 16600 nM"
  },
  {
    "Binder": "IP402 (Fc fusion) YSEGTFISDYSIAMDKIHQQDFVNWLLAQKGSGGGGSGGGGSGGGGSGGGGSGGGGSGGGGSGGGGSACPPC",
    "Reported Measurement": "850 nM"
  }
]

Kindly give each listed record's cAMP EC50.
1. IP305 (Fc fusion) YSEGTFISDYSIALAAAAVRDFVNWLLAGGGGGGGSGGGGSGGGGSGGGGSATHTCPPC
2. IP385 (Fc fusion) YSEGTFTSDYSIYLDRQAIDEFIAWLLKGGGGGGGSGGGGSGGGGSGGGGSACPPC
3. IP396 (Fc fusion) YSEGTFTSDYSKLLERQAIDEFIAWLLKGGGGGGGSGGGGSGGGGSGGGGSACPPC

// result
["> 1130 nM", "30 nM", "1.2 nM"]

Please supply cAMP EC50 for each of the following items, keeping them in order.
1. IP307 (Fc fusion) YSEGTFTSDVSSYMERQAIDEFIAWLLKQGAAAGGSGSTASSGSGSATGGGGAATHTCPPC
2. IP306 (Fc fusion) YSEGTFTSDYSKLLERQAIDEFIAWLLKGGAAAGGSGSTASSGSGSATGGGGAATHTCPPC

// result
["6.5 nM", "0.25 nM"]

Lab note: each binder below needs its cAMP EC50 filled in.
1. IP389 (Fc fusion) YSEGTFISDYSIAMDKIHQQDFVNWLLAQKGGGGGSGGGGSGGGGSGGGGSGGGGSGGGGSGGGGSACPPC
2. IP347 (Fc fusion) YSEGTFTSDYSKLLERQAIDEFIAILLKGGGGGGGSGGGGSGGGGSGGGGSGGGGSGGGGSA
3. IP344 (Fc fusion) YSEGTFISDYSIAMDKIHQQDFVNWLLAQKGGGGGSGGGGSGGGGSGGGGSGGGGSA
4. IP351 (Fc fusion) YSEGTFISDYSIAMDKIHQQDFVNWLLAQKPSSGAPPPSGGGGSGGGGSGGGGSGGGGSACPPC
5. IP380 (Fc fusion) YSEGTFTSDYSKLLEEEAVRLFIEFLLAGGGGGGSGGGGSGGGGSGGGGSATHTCPPC
6. IP314 (Fc fusion) YSEGTFISDYSKLLAAAAVRDFVNWLLAGGGGGGGSGGGGSGGGGSGGGGSATHTCPPC

// result
["1300 nM", "2.5 nM", "> 8550 nM", "820 nM", "1.2 nM", "> 906 nM"]

Dear colleague, could you send me cAMP EC50 for each of the items below? Thanks.
1. IP392 (Fc fusion) YSEGTFISDYSIAMDKIHQQDFVNWLLAQKGAANDWKHNITQGGGGSGGGGSGGGGSGGGGSGGGGSGGGGSACPPC
2. IP308 (Fc fusion) YSEGTFISDYSIALAAAAAKDFVNWLLAGGGGGGGSGGGGSGGGGSGGGGSATHTCPPC
3. IP312 (Fc fusion) YSEGTFISDVSSYMERQAIDEFIAWLLKGGAAAGGSGSTASSGSGSATGGGGAATHTCPPC
4. IP302 (Fc fusion) YSEGTFISDYSIALAAAAQQDFVNWLLAGGGGGGGSGGGGSGGGGSGGGGSATHTCPPC
5. IP349 (Fc fusion) YSEGTFTSDYSKLLERQAIDEFIANLLKGGGGGGGSGGGGSGGGGSGGGGSGGGGSGGGGSA
6. IP368 (Fc fusion) YSEGTFTSDYRQAIDRQAIDEFIAWLLKGGGGGGGSGGGGSGGGGSGGGGSACPPC

// result
1. > 17100 nM
2. > 1520 nM
3. > 1060 nM
4. 93 nM
5. 0.86 nM
6. > 4860 nM
